This collection of values is drawn from patent US20160115500A1.

Molecular target: T1, GAL4 activation domain fusion (ACT) to HAB1 (UniProt Q9CAJ0 23-511, limits assumed)
T1 construct: pACT-HAB1 fusion in yeast reporter strains; also called pACT-HAB1
T1 sequence (looked up): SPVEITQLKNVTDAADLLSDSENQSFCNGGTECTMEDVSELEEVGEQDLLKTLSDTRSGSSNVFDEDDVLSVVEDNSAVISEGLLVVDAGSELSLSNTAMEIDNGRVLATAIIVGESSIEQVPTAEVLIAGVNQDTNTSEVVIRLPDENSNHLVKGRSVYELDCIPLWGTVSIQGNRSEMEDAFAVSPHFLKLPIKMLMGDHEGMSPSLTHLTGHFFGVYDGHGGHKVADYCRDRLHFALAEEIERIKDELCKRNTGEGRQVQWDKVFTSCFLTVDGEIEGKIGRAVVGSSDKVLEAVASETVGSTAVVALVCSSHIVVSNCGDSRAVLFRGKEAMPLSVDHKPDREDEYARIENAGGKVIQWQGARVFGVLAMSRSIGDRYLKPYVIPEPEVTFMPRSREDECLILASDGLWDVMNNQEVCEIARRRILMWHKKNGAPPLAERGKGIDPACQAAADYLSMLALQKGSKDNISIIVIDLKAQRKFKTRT
Assay: yeast two-hybrid, X-gal; lowest fludioxonil concentration giving signal

[
  {
    "binder": "PYR1^K59R,M158T (receptor, not shown: small tags and cut ends, pBD-PYR1 fusion in yeast) MPSELTPEERSELKNSIAEFHTYQLDPGSCSSLHAQRIHAPPELVWSIVRRFDKPQTYRHFIKSCSVEQNFEMRVGCTRDVIVISGLPANTSTERLDILDDERRVTGFSIIGGEHRLTNYKSVTTVHRFEKENRIWTVVLESYVVDMPEGNSEDDTRTFADTVVKLNLQKLATVAEAMARNSGDGSGSQVT",
    "Threshold [µM]": 100
  },
  {
    "binder": "PYR1^K59R,Y120F (receptor, not shown: small tags and cut ends, pBD-PYR1 fusion in yeast) MPSELTPEERSELKNSIAEFHTYQLDPGSCSSLHAQRIHAPPELVWSIVRRFDKPQTYRHFIKSCSVEQNFEMRVGCTRDVIVISGLPANTSTERLDILDDERRVTGFSIIGGEHRLTNFKSVTTVHRFEKENRIWTVVLESYVVDMPEGNSEDDTRMFADTVVKLNLQKLATVAEAMARNSGDGSGSQVT",
    "Threshold [µM]": 100
  },
  {
    "binder": "PYR1^K59R,F108L (receptor, pBD-PYR1 fusion in yeast) MPSELTPEERSELKNSIAEFHTYQLDPGSCSSLHAQRIHAPPELVWSIVRRFDKPQTYRHFIKSCSVEQNFEMRVGCTRDVIVISGLPANTSTERLDILDDERRVTGLSIIGGEHRLTNYKSVTTVHRFEKENRIWTVVLESYVVDMPEGNSEDDTRMFADTVVKLNLQKLATVAEAMARNSGDGSGSQVT",
    "Threshold [µM]": 100
  }
]
